# Assay name: pH stability of quenched linker-payloads in buffers (LCMS)
# Assay type: physicochemical
# Measurement parameters: pH 3.0, 1 Day, RT

Compound: CCCC1O[C@@H]2C[C@H]3[C@@H]4CCC5=CC(=O)C=C[C@]5(C)[C@H]4[C@@H](O)C[C@]3(C)[C@]2(C(=O)COCNC(=O)CNC(=O)CCC(=O)N2Cc3ccccc3-c3c(nnn3CC3OC4OC5C(CO)OC(OC6C(CO)OC(OC7C(CO)OC(OC8C(CO)OC(OC9C(CO)OC(OC3C(O)C4O)C(O)C9O)C(O)C8O)C(O)C7O)C(O)C6O)C(O)C5O)-c3ccccc32)O1 (stereo partly shown) [Q2L7-PII-1]
percentage of the remaining compound: 100%

Compound: CCCC1O[C@@H]2C[C@H]3[C@@H]4CCC5=CC(=O)C=C[C@]5(C)[C@H]4[C@@H](O)C[C@]3(C)[C@]2(C(=O)COC2CCCN2C(=O)CNC(=O)CCOCCOCCOCCOCCNC(=O)CCC(=O)N2Cc3ccccc3-c3c(nnn3CC3OC4OC5C(CO)OC(OC6C(CO)OC(OC7C(CO)OC(OC8C(CO)OC(OC9C(CO)OC(OC3C(O)C4O)C(O)C9O)C(O)C8O)C(O)C7O)C(O)C6O)C(O)C5O)-c3ccccc32)O1 (stereo partly shown) [Q2L6-PII-9]
percentage of the remaining compound: 0%

Compound: CC(C)[C@H](NC(=O)CCOCCOCCOCCOCCNC(=O)CCC(=O)N1Cc2ccccc2-c2c(nnn2CCOCCOCCOCCOCCC(=O)NCCS(=O)(=O)O)-c2ccccc21)C(=O)N[C@@H](CCCNC(N)=O)C(=O)Nc1ccc(COC(=O)NCC(=O)NCOCC(=O)[C@@]2(O)[C@H](C)C[C@H]3[C@@H]4CCC5=CC(=O)C=C[C@]5(C)[C@@]4(F)[C@@H](O)C[C@@]32C)cc1 [Q1L1-PI]
percentage of the remaining compound: 100%

Compound: CCCC1O[C@@H]2C[C@H]3[C@@H]4CCC5=CC(=O)C=C[C@]5(C)[C@H]4[C@@H](O)C[C@]3(C)[C@]2(C(=O)COCN(C)C(=O)CNC(=O)OCc2ccc(NC(=O)[C@H](CCCNC(N)=O)NC(=O)[C@@H](NC(=O)CCOCCOCCOCCOCCNC(=O)CCC(=O)N3Cc4ccccc4-c4c(nnn4CCOCCOCCOCCOCCC(=O)NCCS(=O)(=O)O)-c4ccccc43)C(C)C)cc2)O1 (stereo partly shown) [Q1L1-PII-8]
percentage of the remaining compound: 93%

----------
# Assay name: pH stability of quenched linker-payloads in buffers (LCMS)
# Type: physicochemical
# Measurement parameters: DMSO, 2 Day, RT

Compound: CCCC1O[C@@H]2C[C@H]3[C@@H]4CCC5=CC(=O)C=C[C@]5(C)[C@H]4[C@@H](O)C[C@]3(C)[C@]2(C(=O)COCNC(=O)CNC(=O)CCC(=O)N2Cc3ccccc3-c3c(nnn3CC3OC4OC5C(CO)OC(OC6C(CO)OC(OC7C(CO)OC(OC8C(CO)OC(OC9C(CO)OC(OC3C(O)C4O)C(O)C9O)C(O)C8O)C(O)C7O)C(O)C6O)C(O)C5O)-c3ccccc32)O1 (stereo partly shown) [Q2L7-PII-1]
percentage of the remaining compound, %: 97

Compound: CC(C)[C@H](NC(=O)CCOCCOCCOCCOCCNC(=O)CCC(=O)N1Cc2ccccc2-c2c(nnn2CCOCCOCCOCCOCCC(=O)NCCS(=O)(=O)O)-c2ccccc21)C(=O)N[C@@H](CCCNC(N)=O)C(=O)Nc1ccc(COC(=O)NCC(=O)NCOCC(=O)[C@@]2(O)[C@H](C)C[C@H]3[C@@H]4CCC5=CC(=O)C=C[C@]5(C)[C@@]4(F)[C@@H](O)C[C@@]32C)cc1 [Q1L1-PI]
percentage of the remaining compound, %: 100

Compound: CCCC1O[C@@H]2C[C@H]3[C@@H]4CCC5=CC(=O)C=C[C@]5(C)[C@H]4[C@@H](O)C[C@]3(C)[C@]2(C(=O)COCN(C)C(=O)CNC(=O)OCc2ccc(NC(=O)[C@H](CCCNC(N)=O)NC(=O)[C@@H](NC(=O)CCOCCOCCOCCOCCNC(=O)CCC(=O)N3Cc4ccccc4-c4c(nnn4CCOCCOCCOCCOCCC(=O)NCCS(=O)(=O)O)-c4ccccc43)C(C)C)cc2)O1 (stereo partly shown) [Q1L1-PII-8]
percentage of the remaining compound, %: 100

Compound: CCCC1O[C@@H]2C[C@H]3[C@@H]4CCC5=CC(=O)C=C[C@]5(C)[C@H]4[C@@H](O)C[C@]3(C)[C@]2(C(=O)COC2CCCN2C(=O)CNC(=O)CCOCCOCCOCCOCCNC(=O)CCC(=O)N2Cc3ccccc3-c3c(nnn3CC3OC4OC5C(CO)OC(OC6C(CO)OC(OC7C(CO)OC(OC8C(CO)OC(OC9C(CO)OC(OC3C(O)C4O)C(O)C9O)C(O)C8O)C(O)C7O)C(O)C6O)C(O)C5O)-c3ccccc32)O1 (stereo partly shown) [Q2L6-PII-9]
percentage of the remaining compound, %: 100

# credit: patent US20230119539A1
